- Tested on: A549/ATCC NSCLC
- assay-details: NCI-60 one-dose screen, 48 h (100 = growth as untreated, 0 = no growth, -100 = all killed)
- test-conditions: 10 µM unless noted
Compounds without any hit were thinned out: in the full panel of roughly 83,000, 20% have a hit.
readout-type: growth (%)

>>> quantitative_readout("O=C(/C=C/c1cc(-c2ccc3c(c2)OCO3)n[nH]1)c1ccc2c(c1)OCO2")
90.7
>>> quantitative_readout("Cc1c(C(=N)C(C#N)C#N)c(=N)oc2c1ccc1ccccc12")
92.8
>>> quantitative_readout("COc1cccc(-c2nc3sccn3c2-c2ccnc(NCCCNS(=O)(=O)c3ccc(C(F)(F)F)cc3)c2)c1")
44.1
>>> quantitative_readout("O=C1CCCCC1(c1ccccc1)c1ccccc1")
110
>>> quantitative_readout("Cc1ccc2nc(Cl)cc(=O)n2c1")
113
>>> quantitative_readout("Cc1ccc(C(=O)NCCCNc2nccc(-n3ccc4cccnc43)n2)cc1")
93.4
>>> quantitative_readout("C=C1CCC2C3(C)COC(c4c(OC)cccc4OC)OC3CCC2(C)C1C/C=C1/C(=O)OCC1O (stereo unspecified)")
47.9
>>> quantitative_readout("CC(=O)Nc1nc(N)nc(NC(C)=O)c1N=O")
107
>>> quantitative_readout("O=C1c2c(Cl)c(Cl)c(Cl)c(Cl)c2C(=O)C2(Cl)CC=CCC12Cl (stereo unspecified)")
74.1
>>> quantitative_readout("CC(C)NCCCNC1=C(Cl)C(=O)c2ccccc2C1=O")
81.7
>>> quantitative_readout("COC1=C(OC)C(=O)C(CCCCCCCCCC[P+](c2ccccc2)(c2ccccc2)c2ccccc2)=C(C)C1=O")
-4.09

---

- Tested on: UO-31 renal
- assay-details: NCI-60 one-dose screen, 48 h
- test-conditions: 10 µM unless noted
Compounds without any hit were thinned out: in the full panel of roughly 83,000, 20% have a hit. The source made the active and inactive calls. How the source made its calls: active means growth percent below 10; inactive means the rest.
Possible outcomes: True for active, False for inactive

>>> label("NC(=S)N/N=C1\\CCCC(C(F)(F)F)C1 (centres undefined)")
"False"
>>> label("CCN(CC)c1ccc(C(=N)c2ccc(N(CC)CC)cc2)cc1")
"True"
>>> label("O=c1ccn(C2CC(O)C(O)C(CO)O2)c(=O)[nH]1 (centres undefined)")
"False"
>>> label("COc1cc2c(cc1OCCCCCn1c3ccccc3c3ccccc31)N=C[C@@H]1CCCN1C2=O")
"True"
>>> label("C=C(C)[C@@H]1CC[C@]2(C(=O)O)CC[C@]3(C)[C@H](CC[C@@H]4[C@@]5(C)C[C@@H](CC#Cc6ccc(C(F)(F)F)cc6)[C@H](O)C(C)(C)[C@@H]5CC[C@]43C)[C@@H]12")
"False"
>>> label("COc1cc(C2C3=C(COC3=O)Nc3cc4c(cc32)OCO4)cc2c1OCO2 (centres undefined)")
"False"
>>> label("Cc1cc(N/N=C/c2nc(-c3ccc(Br)cc3)oc2C)c2cc(Cl)ccc2n1")
"False"
>>> label("Nc1nc(=O)c2ccccc2s1")
"False"
>>> label("O=c1[nH]c2ccc(Br)cc2c2c1C(c1ccc(Cl)cc1)c1c(ncn3nc(-c4ccco4)nc13)O2 (centres undefined)")
"False"

---

- System: DU-145 prostate
- assay-details: NCI-60 one-dose screen, 48 h (100 = growth as untreated, 0 = no growth, -100 = all killed)
- test-conditions: 10 µM unless noted
This is part of a sample that, as a whole, favours compounds with a hit. Of some 83,000 tested, about 20% had one in any assay.
readout-type: growth (%)

>>> quantitative_readout("COC(=O)c1nc(-c2ccccc2)oc1S(=O)(=O)N1CCN(c2cccc(Cl)c2)CC1")
92.7
>>> quantitative_readout("Cc1c(C(=N)C(C#N)C#N)c(=N)oc2c1ccc1ccccc12")
103
>>> quantitative_readout("COc1cc(C2CC(c3ccc4c(c3)OCO4)=NN2C=O)cc(OC)c1OC (stereo not given)")
31.7
>>> quantitative_readout("CCCCCCCCC(C)OC(=O)c1nn(C(C)=O)c2ccccc12 (stereo not given)")
110
>>> quantitative_readout("C=C[C@@H]1C[C@H](O)Cc2ccccc2N1")
115
>>> quantitative_readout("N/C(=N\\C(N)=N\\c1nc2ccccc2s1)c1cccc(Br)c1")
99.1
>>> quantitative_readout("Cc1ccc(S(=O)(=O)NCCNc2cc(-c3cn(C(C)(C)C)nc3-c3cccc(O)c3)ccn2)cc1")
88.9
>>> quantitative_readout("NC(=S)N/N=C(/CCN1CCCC1)CC(C1=C(O)C2=CCCCC2OC1=O)c1ccccc1 (stereo not given)")
87.3
>>> quantitative_readout("Cc1nn(-c2ccc([N+](=O)[O-])cc2)c2ncnc(NCCc3ccccc3)c12")
110
>>> quantitative_readout("O=c1ccn(C2CC(O)C(O)C(CO)O2)c(=O)[nH]1 (stereo not given)")
121

---

- Test system: HCC-2998 colon
- assay-details: NCI-60 one-dose screen, 48 h
- test-conditions: 10 µM unless noted
About 83,000 compounds went through this panel and 20% of them were active in at least one assay; those are over-represented in the sample as a whole. Calls of active or inactive are those of the source. The calls were made as follows: active = growth percent below 10; inactive = the rest.
Possible outcomes: True = active, False = inactive

>>> label("Cn1c(=O)cc(NC(=O)CN2CCN(c3cc4c(cc3F)c(=O)c(C(=O)O)cn4C3CC3)CC2)[nH]c1=O")
"False"
>>> label("COc1ccc(/C=C(\\C#N)c2cc(OC)c3c(c2)OCO3)cc1")
"False"
>>> label("O=C(NNC(=S)Nc1ccccc1)c1cc2ccc1CCc1ccc(cc1)CC2")
"False"
>>> label("COc1cc2c(=O)n(C3CCCCCC3)c3c4cc[nH]c4ncc3c2cc1OC")
"False"
>>> label("OC(c1cc2cc(Br)ccc2c2cc(Br)ccc12)C1CCCCN1 (stereo not given)")
"True"
>>> label("COc1ccc(Nc2nn3c(C)cc(C)nc3c2C(=O)Nc2ccc(C)cc2)c(OC)c1")
"False"
>>> label("CCCCCCCCN(CCCCCCCC)CCCCCCNc1cc(OC)cc2cccnc12")
"False"
>>> label("COC(=O)[C@]12CC[C@@H](C)[C@H](C)[C@@H]1C1=CC[C@@H]3[C@@]4(C)C(C=O)=C[C@@](C)(COC(=O)c5ccco5)[C@@H]4[C@H](O)C[C@@]3(C)[C@]1(C)CC2")
"True"
>>> label("COC(OC)c1ccccc1")
"False"
>>> label("COc1ccc(C(=O)N2NC(=O)/C(=C/c3ccc(Br)cc3)N=C2c2ccccc2)cc1")
"False"
>>> label("CCO/C=N/C1=C(C#N)C(c2ccc(Cl)cc2)c2c(c3ccc(C)cc3[nH]c2=O)O1 (stereo not given)")
"False"
>>> label("C=C(C)[C@@H]1CC[C@]2(C(=O)O)CC[C@]3(C)[C@H](CC[C@@H]4[C@@]5(C)C[C@@H](CC#Cc6ccc(C(F)(F)F)cc6)[C@H](O)C(C)(C)[C@@H]5CC[C@]43C)[C@@H]12")
"False"
>>> label("COc1cc(/C(C#N)=C/c2ccc3c(c2OC)OCO3)cc2c1OCO2")
"False"
>>> label("COc1cc(Nc2nc(N[C@H]3CCCC[C@@H]3N)nc3cc[nH]c(=O)c23)cc(OC)c1")
"False"
>>> label("COc1cc(/C=C/C(=O)c2cccc(-n3cc(-c4cc(OC)c(OC)c(OC)c4)[nH]c3=O)c2)cc(OC)c1OC")
"False"
>>> label("Nc1nc(=O)c2ccccc2s1")
"False"
>>> label("O=C(Nc1cccc(-n2cc(-c3ccncc3)c(-c3ccc(Cl)c(O)c3)n2)c1)c1ccccc1")
"False"
>>> label("O=C(c1ccccc1)C1OC1c1ccc([N+](=O)[O-])cc1 (stereo not given)")
"False"
>>> label("CN(CCCCN(C[C@H]1Cc2ncccc2CN1)[C@H]1CCCc2cccnc21)C1CCC(F)(F)CC1")
"False"
>>> label("NNc1cccc(/C=C/c2ccccc2)cc1=O")
"False"

---

- System: SK-MEL-28 melanoma
- assay-details: NCI-60 one-dose screen, 48 h
- test-conditions: 10 µM unless noted
About 83,000 compounds went through this panel and 20% of them were active in at least one assay; those are over-represented in the sample as a whole. Calls of active or inactive are those of the source. How the source made its calls: active means growth percent below 10; inactive means the rest.
Possible outcomes: active, inactive

>>> label("Cc1ccc(S(=O)(=O)NCCNc2cc(-c3cn(C(C)(C)C)nc3-c3cccc(O)c3)ccn2)cc1")
"inactive"
>>> label("COc1ccc(C2=Nn3c(nnc3-n3nc(C)cc3C)SC2)cc1")
"inactive"
>>> label("COc1ccc(-c2nc(-c3nc4cc(C)c(C)cc4[nH]3)cc3c2[nH]c2ccccc23)cc1")
"inactive"
>>> label("COc1cc(-c2ncn(/C=C\\C(=O)OC(C)C)n2)cc(C(F)(F)F)c1")
"active"
>>> label("CNC(=S)NNC(=O)C1CC1")
"inactive"
>>> label("O=C(NCCCNc1nccc(-n2ccc3cccnc32)n1)c1c(F)cccc1F")
"inactive"
>>> label("C=C[C@@H]1C[C@@H]2Cc3cc(F)ccc3N1O2")
"inactive"
>>> label("COc1cc(-c2nn(-c3cccc(NC(=O)Nc4ccc(Cl)c(C(F)(F)F)c4)c3)cc2-c2ccncc2)ccc1Cl")
"active"
>>> label("Fc1ccc(Nc2nc(NCCNc3ccnc4cc(Cl)ccc34)nc(N3CCOCC3)n2)cc1")
"active"
>>> label("CN1C=CN(Cc2ccc(-c3ccccn3)nc2)[CH-]1.CN1C=CN(Cc2ccc(-c3ccccn3)nc2)[CH-]1.[Au+3]")
"inactive"
>>> label("CCN(CC)CCOC(=O)C(c1ccccc1)(c1ccccc1)C(C)C")
"inactive"
>>> label("COc1ccc(/C=C2/C(=O)NC(SCC(=O)N3CCN(c4cc5c(cc4F)c(=O)c(C(=O)O)cn5C4CC4)CC3)=NC2N)cc1OC (stereo not given)")
"inactive"
>>> label("COC(=O)c1nc(-c2ccccc2)oc1S(=O)(=O)N1CCN(c2cccc(Cl)c2)CC1")
"inactive"
>>> label("CCC(=O)OC1=CN2C(=NC(c3ccc(N)cc3)=CC2c2cc(OC)c(OC)c(OC)c2)S1 (stereo not given)")
"inactive"
>>> label("O=S(=O)(c1ccc(OCCO)cc1)c1ccc(OCCO)cc1")
"inactive"
>>> label("CCCCCCN1CSC(=S)N(CCCCCC)C1")
"inactive"
>>> label("CC(=O)Oc1csc(N(C(C)=O)c2cccc(C(F)(F)F)c2)n1")
"inactive"
>>> label("Cc1ccc(-c2nc(C#N)c(S(=O)(=O)n3nc(-c4ccccc4)cc3N)o2)cc1")
"inactive"
>>> label("Nc1cccc(-c2nc3sccn3c2-c2ccnc(NCCCNS(=O)(=O)c3cccc4ccccc34)n2)c1")
"inactive"
>>> label("COc1cc(C(=O)/C=C/c2ccc3nc(-c4cc(F)cc(F)c4)sc3c2)cc(OC)c1OC")
"inactive"
